Target: human MASP-2 (in normal human serum) (human, UniProt O00187 16-686)
Sequence (O00187 16-686 limits assumed): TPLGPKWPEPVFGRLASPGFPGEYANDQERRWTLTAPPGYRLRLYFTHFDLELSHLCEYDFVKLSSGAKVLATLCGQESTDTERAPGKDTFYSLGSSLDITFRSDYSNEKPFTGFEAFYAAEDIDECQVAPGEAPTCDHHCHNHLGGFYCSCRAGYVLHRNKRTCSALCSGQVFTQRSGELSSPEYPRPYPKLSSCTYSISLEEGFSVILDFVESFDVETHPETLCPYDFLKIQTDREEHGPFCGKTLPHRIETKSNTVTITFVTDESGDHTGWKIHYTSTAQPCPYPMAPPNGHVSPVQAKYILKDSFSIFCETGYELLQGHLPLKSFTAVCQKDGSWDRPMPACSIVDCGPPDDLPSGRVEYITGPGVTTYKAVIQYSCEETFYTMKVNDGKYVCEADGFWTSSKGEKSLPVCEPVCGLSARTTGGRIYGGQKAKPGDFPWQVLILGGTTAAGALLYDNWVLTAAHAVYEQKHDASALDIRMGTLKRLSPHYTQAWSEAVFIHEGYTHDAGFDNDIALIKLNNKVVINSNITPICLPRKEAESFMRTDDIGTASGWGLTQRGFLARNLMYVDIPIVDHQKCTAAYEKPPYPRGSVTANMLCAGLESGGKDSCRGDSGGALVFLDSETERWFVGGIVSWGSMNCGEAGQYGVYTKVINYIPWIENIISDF
Experiment: cell-based or functional assay
Where no end group is shown, it is not given here.
A collection of binders and their measured IC50, lectin pathway C4 deposition, human serum
testReadout: IC50, lectin pathway C4 deposition, human serum (nM)

{"binder": "EVO2b (designed binder, not fully specified; cysteine pairing not given here, Modified TFPI-D2 Kunitz domain; made as m1) KPDFCFLEEDPGPCRAVKRRYFYNNQTKQCERFGYGGCLGNMNNFETLEECKNICEDG", "unitsText": "nM", "measValue": 62.7}
{"binder": "EVO223 (designed binder, Modified TFPI-D2 Kunitz domain; made as m1) KPDFCFLENDPGPCRAAAVRYFYNNQTKQCERFYYGGCLGNMNNFVTLEECKNICEDG", "unitsText": "nM", "measValue": 9.9}
{"binder": "EVO22a (designed binder, Modified TFPI-D2 Kunitz domain; made as m1) KPDFCFLENDPGPCRAAKRRYFYNNQTKQCERFYYGGCLGNMNNFVTLEECKNICEDG", "unitsText": "nM", "measValue": 3.7}
